Origin of measurements: patent US20220402950A1

- study.target: human PAD4 (hPAD4) (Homo sapiens, UniProt Q9UM07)
- Sequence (Q9UM07 whole entry): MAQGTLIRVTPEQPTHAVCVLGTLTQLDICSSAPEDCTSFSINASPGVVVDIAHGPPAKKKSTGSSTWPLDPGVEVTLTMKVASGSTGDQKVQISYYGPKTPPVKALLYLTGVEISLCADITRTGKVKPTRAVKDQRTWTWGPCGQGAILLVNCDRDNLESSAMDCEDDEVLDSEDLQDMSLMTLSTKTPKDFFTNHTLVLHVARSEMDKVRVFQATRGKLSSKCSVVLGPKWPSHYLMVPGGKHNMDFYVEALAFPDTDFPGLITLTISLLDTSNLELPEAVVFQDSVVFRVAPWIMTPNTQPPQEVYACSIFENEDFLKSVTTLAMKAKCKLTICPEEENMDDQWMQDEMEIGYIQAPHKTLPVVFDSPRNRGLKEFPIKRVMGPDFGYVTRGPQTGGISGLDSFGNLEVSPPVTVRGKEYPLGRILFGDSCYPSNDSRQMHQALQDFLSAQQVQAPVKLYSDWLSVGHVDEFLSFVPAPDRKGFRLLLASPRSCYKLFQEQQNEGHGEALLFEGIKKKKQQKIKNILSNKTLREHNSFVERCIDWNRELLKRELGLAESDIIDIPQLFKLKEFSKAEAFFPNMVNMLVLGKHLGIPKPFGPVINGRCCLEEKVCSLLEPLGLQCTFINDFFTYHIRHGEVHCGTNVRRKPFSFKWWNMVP
- assay.info: RFMS Human PAD4 Functional Assay
- Format: biochemical
- particulars: hPAD4 RFMS IC50, human PAD4, rapid-fire mass spectrum (RFMS) assay; 5 nM hPAD4, 250 μM BAEE
# thresholds on IC50 define classes: bin 0 = under 40 nM, bin 1 = from 40 nM up to 100 nM, bin 2 = 100 nM and over

• COc1cc(C(=O)N2C[C@H]3CC[C@@H]2[C@@H]3N)cc2nc(-c3cc4cccc(C5CC(C(=O)N(C)C)C5)c4n3CC3CC3)n(C)c12 (single isomer, unassigned) [Example 47] = bin 0
• COc1cc(C(=O)N2C[C@H]3CC[C@@H]2[C@@H]3N)cc2nc(-c3cc4cccc(-c5ccc6[nH]c(=O)cc(C)c6c5)c4n3CC3CC3)n(C)c12 = bin 2
• COc1cc(C(=O)N2C[C@H]3CC[C@@H]2[C@@H]3N)cc2nc(-c3cc4cccc(-c5cccc(C(O)CO)c5)c4n3CC3CC3)n(C)c12 (stereo partly drawn) = bin 1
• COc1cc(C(=O)N2C[C@H]3CC[C@@H]2[C@@H]3N)cc2nc(-c3cc4cccc(-c5ccc6[nH]c(=O)ccc6c5)c4n3CC3CC3)n(C)c12 = bin 1
• COCC(=O)N1CC(c2cccc3cc(-c4nc5cc(C(=O)N6C[C@H]7CC[C@@H]6[C@@H]7N)cc(OC)c5n4C)n(CC4CC4)c23)C1 = bin 0
• COc1cc(C(=O)N2C[C@H]3CC[C@@H]2[C@@H]3N)cc2nc(-c3cc4cccc(CCC#N)c4n3CC3CC3)n(C)c12 = bin 1
• COc1cc(C(=O)N2C[C@H]3CC[C@@H]2[C@@H]3N)cc2nc(-c3cc4cccc(C)c4n3CC3CC3)n(C)c12 = bin 1
• COc1cc(C(=O)N2C[C@H]3CC[C@@H]2[C@@H]3N)cc2nc(-c3cc4cccc(C5CC(C(=O)N6CCCC6)C5)c4n3CC3CC3)n(C)c12 (single isomer, unassigned) [Example 49] = bin 0
• COc1cc(C(=O)N2C[C@H](N)C[C@@H](F)C2)cc2nc(-c3cc4cccc(C5CN(C(C)=O)C5)c4n3C)n(Cc3cnn(C)c3)c12 = bin 2
• COc1cc(C(=O)N2C[C@H]3CC[C@@H]2[C@@H]3N)cc2nc(-c3cc4cccc(C5CCN(C(=O)C6CC6)CC5)c4n3CC3CC3)n(C)c12 = bin 2
• COc1cc(C(=O)N2C[C@H]3CC[C@@H]2[C@@H]3N)cc2nc(-c3cc4cccc(Nc5c(C)n[nH]c5C)c4n3CC3CC3)n(C)c12 = bin 1
• COc1cc(C(=O)N2CC3CCC2[C@@H]3N)cc2nc(-c3cc4cccc(-c5cnn(C6CCOCC6)c5)c4n3CC3CC3)n(C)c12 (stereo partly drawn) = bin 2

###

- study.target: UniProt Q9UM07
- assay.info: RFMS Human PAD4 Functional Assay
- Format: biochemical
- particulars: hPAD4 RFMS IC50, human PAD4, rapid-fire mass spectrum (RFMS) assay; 5 nM hPAD4, 250 μM BAEE
API: label(entry) gives T if the entry's IC50 is strictly smaller than 0.07 µM; on equality or larger values it gives F.

- COc1cc(C(=O)N2C[C@H]3CC[C@@H]2[C@@H]3N)cc2nc(-c3cc4cccc(-c5ccc6c(=O)[nH]ccc6c5)c4n3CC3CC3)n(C)c12: F
- COc1cc(C(=O)N2C[C@H]3CC[C@@H]2[C@@H]3N)cc2nc(-c3cc4cccc(-c5ccccc5C#N)c4n3CC3CC3C)n(C)c12 (stereo partly drawn): F
- COc1cc(C(=O)N2C[C@H]3CC[C@@H]2[C@@H]3N)cc2nc(-c3cc4cccc(CCCCCCN)c4n3CC3CC3)n(C)c12: T
- C#CCOCC(O)Cn1cc(-c2cccc3cc(-c4nc5cc(C(=O)N6CC7CCC6[C@@H]7N)cc(OC)c5n4C)n(CC4CC4)c23)cn1 (stereo partly drawn): F
- COc1cc(C(=O)N2C[C@H]3CC[C@@H]2[C@@H]3N)cc2nc(-c3cc4cccc(Nc5cn(C)nc5C)c4n3CC3CC3)n(C)c12: T
- COc1cc(C(=O)N2C[C@H]3CC[C@@H]2[C@@H]3N)cc2nc(-c3cc4cccc(-c5cccs5)c4n3CC3CC3)n(C)c12: F
- COc1cc(C(=O)N2C[C@H]3CC[C@@H]2[C@@H]3N)cc2nc(-c3cc4cccc(C5CN(C(N)=O)C5)c4n3CC3CC3)n(C)c12: T
- COc1cc(C(=O)N2C[C@H]3CC[C@@H]2[C@@H]3N)cc2nc(-c3cc4cccc(-c5cnc(C(N)=O)c(F)c5)c4n3CC3CC3)n(C)c12: F
- COc1cc(C(=O)N2C[C@H]3CC[C@@H]2[C@@H]3N)cc2nc(-c3cc4cccc(-c5ccc6c(c5)C(O)(C(F)(F)F)C(=O)N6)c4n3CC3CC3)n(C)c12 (stereo partly drawn): T
- COc1cc(C(=O)N2C[C@H]3CC[C@@H]2[C@@H]3N)cc2nc(-c3cc4cccc(CC5CCNCC5)c4n3CC3CC3)n(C)c12: F
- COc1cc(C(=O)N2C[C@H]3CC[C@@H]2[C@@H]3N)cc2nc(-c3cc4cccc(-c5ccc(C(=O)N(C)C)cc5)c4n3CC3CC3)n(C)c12: F
